- PROCEDURE_DETAILS: MultiTox-Fluor Cytotoxicity Assay - LYMP1-002 - Live Cells (AID 955);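 note: cells exposed to compound for 16 hours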
- CONDITION_LABEL: LYMP1-002 lymphoblastoid live-cell protease fluorescence viability; series mostly up to 46.1 µM
Results filed as inconclusive are left out. Calls of active or inactive are those of the source. Calls come from the whole dose curve; as a rule, active = well fitted cell-killing curve with a large enough effect; inconclusive = small, poorly fitted or top-dose-only effect, or effect the other way; inactive = flat fitted curve, though single readings scatter.
OUTCOME_MEASURE: outcome

c1ccc(Nc2cccc3ccccc23)cc1    inactive
CCCC(=O)OC(=O)CCC    inactive
CC(C)S    inactive
c1ccc(COCc2ccccc2)cc1    inactive
C/C(Cl)=C/CCl    inactive
C=CC(=O)CC    inactive

Q. Fill in: outcome of C[Si](C)(C)Cl is ___
A. inactive

Q. Fill in: outcome of CCCCC(CC)COCCCN (centres undefined) is ___
A. inactive

Q. Fill in: outcome of CN(C)c1ccc(Cc2ccc(N(C)C)cc2)cc1 is ___
A. inactive

meta.source: PubChem BioAssay (NCATS)
